Answer each item with its documented B max.
- testedSystem: T1, human β-NGF (human, UniProt P01138 122-241, biotinylated (site not stated))
- T1 construct: also called biotinylated human β-NGF; nerve growth factor
- T1 sequence (P01138 122-241 limits assumed): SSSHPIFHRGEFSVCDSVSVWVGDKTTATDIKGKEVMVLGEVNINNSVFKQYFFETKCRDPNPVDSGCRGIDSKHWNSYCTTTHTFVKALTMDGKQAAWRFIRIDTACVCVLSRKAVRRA
- measurementProtocol: radioactive equilibrium binding assay
Report the figure in % without appending any unit label.

Prompt line: Report B max for 61363-C12 (G45E) (designed binder, group N4; G45E) MTIPEIIIKVRGTQVVGSDMTVIVEFTNPLEENLYNVWVHLDGPEVTRPMKKMFYQISTNIPVQWEEVVRPWVSGHRKLIASMGAHTKDHVYGELDVQIQRRDYKDDDDK please.
Response line: 33.6

Prompt line: Report B max for 61362-B8 (I23L) (designed binder, group N4; I23L) MTIPEIIIKVRGTQVVGSDMTVLVEFTIPLQDILNVWVHLDGPGVTRPMKKMFFSIRMTPAVQWEEVVRPWVSGHRKLIASMSFHTHRHVYGELDVQIQRRDYKDDDDK please.
Response line: 2.1

Prompt line: Report B max for 61363-H1 (V15A) (designed binder, group N4; V15A) MTIPEIIIKVRGTQAVGSDMTVIVEFTNPLKETLYNVWVHLDGPGVTRPMKKMFWEIRTNHPVQWEEVVRPWVSGHRKLIASMSSNSRDHVYGELDVQIQRRDYKDDDDK please.
Response line: 8.4

Prompt line: Report B max for 61363-C1 (G17D) (designed binder, group N3; G17D) MTIPEIIIKVRGTQVVDSDMTVIVEFTDTVLEILRTVWVHLDGPGVTRPMKKMFPHIRPKVTVQWEEVVRPWVSGHRKLIASMLIASLRHVYGELDVQIQRRDYKDDDDK please.
Response line: 1.8
